target under test: long isoform of human D2 receptor (Homo sapiens, UniProt P14416)
Sequence (P14416 whole entry, canonical isoform): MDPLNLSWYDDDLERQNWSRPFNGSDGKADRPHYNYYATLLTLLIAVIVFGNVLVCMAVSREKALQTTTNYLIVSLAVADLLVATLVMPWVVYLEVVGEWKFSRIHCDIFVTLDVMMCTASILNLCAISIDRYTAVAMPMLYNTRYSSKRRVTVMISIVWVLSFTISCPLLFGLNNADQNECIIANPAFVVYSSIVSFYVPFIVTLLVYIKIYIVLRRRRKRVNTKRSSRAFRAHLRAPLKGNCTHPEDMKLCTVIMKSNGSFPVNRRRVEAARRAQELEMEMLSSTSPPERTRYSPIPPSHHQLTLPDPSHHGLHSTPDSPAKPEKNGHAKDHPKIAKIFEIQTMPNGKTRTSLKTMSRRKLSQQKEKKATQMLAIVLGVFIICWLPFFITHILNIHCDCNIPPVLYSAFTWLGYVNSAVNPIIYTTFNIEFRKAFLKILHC
method: Arrestin Antagonist Assay (DRD2L PathHunter CHO-K1 cells, vs EC80 dopamine)
pIC50: −log10 of the molar value.
Please go through the items and note down their pIC50.

// solved cases for pIC50 follow
O=C1CCc2ccc(OCCCCN3CCc4ncsc4C3)cc2N1
5.00 to 6.00
O=C1NCCc2ccc(OCCCCN3CCc4ccsc4C3)nc2N1
7.00 to 8.00
Oc1cccc2ccc(OCCCCN3CCc4c(Cl)cccc4C3)nc12
< 5.00

For each of the compounds below, note its pIC50.
1. COc1cccnc1N1CCN(CCCCOc2cccc(-c3cc[nH]n3)n2)CC1
2. O=c1ccc2ccc(OCCCCN3CCc4c(Cl)cccc4C3)nc2[nH]1
3. CCCOc1cccnc1N1CCN(CCCCOc2ccc3cccc(O)c3n2)CC1
4. O=c1ccc2ccc(OCCCCN3CCc4nn(-c5ccccn5)cc4C3)nc2[nH]1
5. O=c1ccc2ccc(OCCCCN3CCc4ccsc4C3)nc2[nH]1
6. N#Cc1ccc2c(c1)CCN(CCCCOc1ccc3ccc(=O)[nH]c3n1)C2
7. c1ccc2c(N3CCN(CCCCOc4ccc5cn[nH]c5c4)CC3)cccc2c1
8. O=C1CCc2ccc(OCCCCN3CCc4c(cccc4C(F)(F)F)C3)nc2N1

A.
1. > 8.00
2. < 5.00
3. 6.00 to 7.00
4. 6.00 to 7.00
5. > 8.00
6. 7.00 to 8.00
7. 7.00 to 8.00
8. < 5.00

###

Please go through the items and note down their IC50.
target under test: long isoform of human D2 receptor (Homo sapiens)
method: Arrestin Antagonist Assay (DRD2L PathHunter CHO-K1 cells, vs EC80 dopamine)

// solved cases for IC50 follow
Clc1ccccc1N1CCN(CCCCOc2cccc(-c3cc[nH]n3)n2)CC1 [Compound 50]
< 10 nM
O=C1CCc2ccc(OCCCCN3CCc4nn(-c5ccccc5F)cc4C3)cc2N1 [Compound 35]
10 to 100 nM
CS(=O)(=O)Nc1cccc(OCCCCN2CCc3ccccc3C2)n1 [Compound 42]
1000 to 10000 nM

Next up:
Memo: O=C1NCCc2ccc(OCCCCN3CCc4nn(-c5ccccn5)cc4C3)nc2N1 [Compound 90] , reported IC50: > 10000 nM

###

Please go through the items and note down their Emax.
target under test: long isoform of human D2 receptor (Homo sapiens)
method: Arrestin Agonist Assay (DRD2L PathHunter CHO-K1 cells, β-arrestin recruitment)
test context: CHO-K1, read-out: β-arrestin (agonist mode) Emax

For each of the molecules below, note its Emax.
1. Oc1cccc2ccc(OCCCCN3CCc4ccccc4C3)nc12
2. COc1ccc2c(c1)CCN(CCCCOc1ccc3ccc(=O)[nH]c3n1)C2

A.
["10 to 25%", "10 to 25%"]

For each of the molecules below, note its Emax.
1. CCOc1cccnc1N1CCN(CCCCOc2ccc3cccc(O)c3n2)CC1
2. O=c1ccc2ccc(OCCCCN3CCc4cccc(C(F)(F)F)c4C3)nc2[nH]1
3. O=C1CCc2ccc(OCCCCN3CCc4c(Cl)cccc4C3)nc2N1

A.
["10 to 25%", "< 10%", "> 75%"]

###

target under test: long isoform of human D2 receptor (Homo sapiens, UniProt P14416)
method: cAMP HTRF Agonist Assay (DRD2L PathHunter CHO-K1 cells, forskolin-stimulated)
measurement kind: IC50

// solved cases for IC50 follow
Cc1cccc(N2CCN(CCCCOc3ccc4cn[nH]c4c3)CC2)c1C
0.01 to 0.1 µM
Cc1ccccc1N1CCN(CCCCOc2ccc3cn[nH]c3c2)CC1
0.01 to 0.1 µM
O=c1ccc2ccc(OCCCCN3CCc4c(Cl)cccc4C3)nc2[nH]1
< 0.01 µM
Oc1cccc2ccc(OCCCCN3CCc4cc(Cl)ccc4C3)nc12
> 10 µM
O=C1NCCc2ccc(OCCCCN3CCc4ccccc4C3)nc2N1
> 10 µM
c1ccc2c(N3CCN(CCCCOc4ccc5cn[nH]c5c4)CC3)cccc2c1
0.01 to 0.1 µM

For each of the compounds below, note its IC50.
1. Cn1cc2c(n1)CCN(CCCCOc1ccc3c(c1)NC(=O)CC3)C2
2. COc1ccc2c(c1)CCN(CCCCOc1ccc3ccc(=O)[nH]c3n1)C2

A.
1: 0.01 to 0.1 µM; 2: < 0.01 µM
